# Target: PhACO1 (Petunia x hybrida)
Readout Type: pKd
Scale explanation: pKd corresponds to minus log10 of a concentration expressed in moles per litre.

Value sought: pKd, system PhACO1 (Petunia x hybrida), item O=C(O)c1cnccn1 . Result: 4.16

----------
# Target: PhACO1 (Petunia x hybrida, UniProt Q08506, R244A)
# Sequence (Q08506 whole entry R244A): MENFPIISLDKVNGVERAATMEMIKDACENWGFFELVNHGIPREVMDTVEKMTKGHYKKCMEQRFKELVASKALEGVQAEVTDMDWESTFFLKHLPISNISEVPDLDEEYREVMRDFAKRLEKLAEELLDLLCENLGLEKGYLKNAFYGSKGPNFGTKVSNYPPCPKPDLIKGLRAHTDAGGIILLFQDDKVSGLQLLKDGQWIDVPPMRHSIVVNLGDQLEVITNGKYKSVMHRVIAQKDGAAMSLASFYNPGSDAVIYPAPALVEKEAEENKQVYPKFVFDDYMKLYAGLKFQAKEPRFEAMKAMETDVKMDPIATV
# Protocol Notes: isothermal titration calorimetry
# Type: binding
Readout Type: Kd (µM)
Answer in µM, number only, no unit symbol.

Reported Kd for O=C(O)c1cnccn1 was 104
